Test system: Aspergillus flavus
ASSAY_COMMENT: Antimicrobial activity against Aspergillus flavus MTCC 873 at 100 ug/ml after 48 hrs by disc diffusion method
Type: functional
ASSAY_CONDITIONS: MTCC 873, 48 h, read-out: DIZ
Catalogue of molecules with associated zone of inhibition at 100 µg/mL
I only need the number, in mm, no unit after it.

For orientation, consider the following solved cases.
| SMILES_CODE | REPORTED_VALUE |
| --- | --- |
| Cc1c(C(=O)NNC(=O)c2ccccc2)c(-c2ccccc2)nn1-c1ccccc1 | 12 |
| COc1ccc(-c2nn(-c3ccccc3)c(C)c2-c2nnc(-c3ccccc3)o2)cc1OC | 8 |
| Cc1c(-c2nnc(-c3ccccc3)o2)c(-c2ccccc2)nn1-c1ccccc1 | 8 |
| Cc1c(-c2nnc(-c3ccc(Cl)cc3)o2)c(-c2ccccc2)nn1-c1ccccc1 | 16 |
| COc1ccc(-c2nnc(-c3c(-c4ccccc4)nn(-c4ccccc4)c3C)o2)cc1 | 14 |

Report zone of inhibition at 100 µg/mL under test system Aspergillus flavus for Cc1c(-c2nnc(-c3ccc([N+](=O)[O-])cc3)o2)c(-c2ccccc2)nn1-c1ccccc1 .
12

State measured zone of inhibition at 100 µg/mL of the molecule COc1cc(-c2nnc(-c3c(-c4cc(OC)c(OC)c(OC)c4)nn(-c4ccccc4)c3C)o2)cc(OC)c1OC with Aspergillus flavus.
23

GET zone of inhibition at 100 µg/mL where system = Aspergillus flavus and item = Cc1c(-c2nnc(-c3ccccc3)o2)c(-c2ccc([N+](=O)[O-])cc2)nn1-c1ccccc1
14

GET zone of inhibition at 100 µg/mL | system: Aspergillus flavus | item: Cc1c(-c2nnc(-c3ccc(Cl)cc3)o2)c(-c2ccc(Cl)cc2)nn1-c1ccccc1
18

Give measured zone of inhibition at 100 µg/mL for Cc1c(-c2nnc(-c3ccc([N+](=O)[O-])cc3)o2)c(-c2ccc([N+](=O)[O-])cc2)nn1-c1ccccc1 (Aspergillus flavus).
11

Answer briefly: zone of inhibition at 100 µg/mL recorded on Aspergillus flavus for COc1ccc(-c2nn(-c3ccccc3)c(C)c2-c2nnc(-c3ccccc3)o2)cc1
8

---

Tested on: Escherichia coli
ASSAY_COMMENT: Antimicrobial activity against Escherichia coli MTCC 724 after 24 hrs by microdilution method
Format: functional
ASSAY_CONDITIONS: MTCC 724, 24 h
ENDPOINT_LABEL: MIC (µg/mL)
Express the result in µg/mL but write the number alone.

| SMILES_CODE | REPORTED_VALUE |
| --- | --- |
| Cc1c(C(=O)NNC(=O)c2ccccc2)c(-c2ccccc2)nn1-c1ccccc1 | 25 |
| COc1ccc(-c2nn(-c3ccccc3)c(C)c2-c2nnc(-c3ccccc3)o2)cc1OC | 35 |
| COc1ccc(-c2nn(-c3ccccc3)c(C)c2-c2nnc(-c3ccccc3)o2)cc1 | 35 |

Answer briefly: MIC recorded on Escherichia coli for COc1cc(-c2nn(-c3ccccc3)c(C)c2-c2nnc(-c3ccccc3)o2)cc(OC)c1OC
25

Under Escherichia coli, report MIC for Cc1c(-c2nnc(-c3ccc(Cl)cc3)o2)c(-c2ccc(Cl)cc2)nn1-c1ccccc1
45

Given Cc1c(-c2nnc(-c3ccccc3)o2)c(-c2ccccc2)nn1-c1ccccc1 , report its MIC on Escherichia coli.
40

Look up and report measured MIC (Escherichia coli) for the following molecule: Cc1c(C(=O)O)c(-c2ccccc2)nn1-c1ccccc1
35

Determine reported MIC for COc1cc(-c2nnc(-c3c(-c4ccccc4)nn(-c4ccccc4)c3C)o2)cc(OC)c1OC ; test system: Escherichia coli.
20

Would you please give the reported MIC of Cc1c(-c2nnc(-c3ccccc3)o2)c(-c2ccc(Cl)cc2)nn1-c1ccccc1 with Escherichia coli?
40

---

Each record here notes measured zone of inhibition at 100 µg/mL.
Test system: Aspergillus flavus
ASSAY_COMMENT: Antimicrobial activity against Aspergillus flavus MTCC 873 at 100 ug/ml after 48 hrs by disc diffusion method
Type: functional
ASSAY_CONDITIONS: MTCC 873, 48 h, read-out: DIZ
Respond with the bare value in mm.

| SMILES_CODE | ENDPOINT_LABEL | REPORTED_VALUE |
| --- | --- | --- |
| COc1cc(-c2nnc(-c3c(-c4ccccc4)nn(-c4ccccc4)c3C)o2)cc(OC)c1OC | zone of inhibition at 100 µg/mL | 13 |
| COc1cc(-c2nn(-c3ccccc3)c(C)c2-c2nnc(-c3ccccc3)o2)cc(OC)c1OC | zone of inhibition at 100 µg/mL | 12 |
| Cc1c(C(=O)O)c(-c2ccccc2)nn1-c1ccccc1 | zone of inhibition at 100 µg/mL | 8 |

State, for Aspergillus flavus, measured zone of inhibition at 100 µg/mL of the compound listed here: Cc1c(C(=O)NN)c(-c2ccccc2)nn1-c1ccccc1
6

Report zone of inhibition at 100 µg/mL on Aspergillus flavus for this entry: Cc1c(-c2nnc(-c3ccccc3)o2)c(-c2ccc(Cl)cc2)nn1-c1ccccc1
10

---

Documented MIC across a set of molecules
Tested on: Staphylococcus aureus
ASSAY_COMMENT: Antimicrobial activity against Staphylococcus aureus MTCC 96 after 24 hrs by microdilution method
Type: functional
ASSAY_CONDITIONS: MTCC 96, 24 h
Reply numerically in µg/mL, unit not repeated.

| SMILES_CODE | UNIT_SYMBOL | MIC |
| --- | --- | --- |
| Cc1c(C(=O)NNC(=O)c2ccccc2)c(-c2ccccc2)nn1-c1ccccc1 | µg/mL | 25 |

Identify MIC associated with the molecule Cc1c(-c2nnc(-c3ccc(Cl)cc3)o2)c(-c2ccc(Cl)cc2)nn1-c1ccccc1
40

Give the reported value of MIC for this record: Cc1c(-c2nnc(-c3ccccc3)o2)c(-c2ccc(Cl)cc2)nn1-c1ccccc1
50

For Cc1c(-c2nnc(-c3ccc([N+](=O)[O-])cc3)o2)c(-c2ccccc2)nn1-c1ccccc1 , write its MIC.
25

---

System: Aspergillus niger
ASSAY_COMMENT: Antimicrobial activity against Aspergillus niger MTCC 281 at 50 ug/ml after 48 hrs by disc diffusion method
Format: functional
ASSAY_CONDITIONS: MTCC 281, 48 h, read-out: DIZ
Here the recorded zone of inhibition at 50 µg/mL is given for each entry.
Give your result in mm as a bare value.

For orientation, consider the following solved cases.
| SMILES_CODE | TARGET_OR_TEST_SYSTEM | REPORTED_VALUE |
| --- | --- | --- |
| COc1cc(-c2nnc(-c3c(-c4ccccc4)nn(-c4ccccc4)c3C)o2)cc(OC)c1OC | Aspergillus niger | 5 |
| COc1ccc(-c2nn(-c3ccccc3)c(C)c2-c2nnc(-c3ccccc3)o2)cc1OC | Aspergillus niger | 3 |
| Cc1c(-c2nnc(-c3ccc([N+](=O)[O-])cc3)o2)c(-c2ccc([N+](=O)[O-])cc2)nn1-c1ccccc1 | Aspergillus niger | 6 |
| Cc1c(-c2nnc(-c3ccc([N+](=O)[O-])cc3)o2)c(-c2ccccc2)nn1-c1ccccc1 | Aspergillus niger | 2 |
| COc1ccc(-c2nn(-c3ccccc3)c(C)c2-c2nnc(-c3ccccc3)o2)cc1 | Aspergillus niger | 2 |
| Cc1c(-c2nnc(-c3ccccc3)o2)c(-c2ccc(Cl)cc2)nn1-c1ccccc1 | Aspergillus niger | 8 |

# input for lookup
Report zone of inhibition at 50 µg/mL, nothing else, for this molecule: Cc1c(-c2nnc(-c3ccccc3)o2)c(-c2ccccc2)nn1-c1ccccc1
5

---

Test system: Aspergillus niger
ASSAY_COMMENT: Antimicrobial activity against Aspergillus niger MTCC 281 at 50 ug/ml after 48 hrs by disc diffusion method
Format: functional
ASSAY_CONDITIONS: MTCC 281, 48 h, read-out: DIZ
ENDPOINT_LABEL: zone of inhibition at 50 µg/mL (mm)
Numeric only. Scale: mm

Take a look at these entries with their results.
| SMILES_CODE | TARGET_OR_TEST_SYSTEM | zone of inhibition at 50 µg/mL, mm |
| --- | --- | --- |
| COc1ccc(-c2nnc(-c3c(-c4ccccc4)nn(-c4ccccc4)c3C)o2)cc1 | Aspergillus niger | 6 |
| Cc1c(-c2nnc(-c3ccc(Cl)cc3)o2)c(-c2ccc(Cl)cc2)nn1-c1ccccc1 | Aspergillus niger | 14 |
| COc1cc(-c2nnc(-c3c(-c4cc(OC)c(OC)c(OC)c4)nn(-c4ccccc4)c3C)o2)cc(OC)c1OC | Aspergillus niger | 11 |

Assign zone of inhibition at 50 µg/mL to the following record: Cc1c(-c2nnc(-c3ccccc3)o2)c(-c2ccc([N+](=O)[O-])cc2)nn1-c1ccccc1
8

Supply reported zone of inhibition at 50 µg/mL belonging to this compound: Cc1c(C(=O)O)c(-c2ccccc2)nn1-c1ccccc1
4

Tell me zone of inhibition at 50 µg/mL reported for Cc1c(C(=O)NNC(=O)c2ccccc2)c(-c2ccccc2)nn1-c1ccccc1
8

State its zone of inhibition at 50 µg/mL: Cc1c(C(=O)NN)c(-c2ccccc2)nn1-c1ccccc1
2

State its zone of inhibition at 50 µg/mL: COc1cc(-c2nn(-c3ccccc3)c(C)c2-c2nnc(-c3ccccc3)o2)cc(OC)c1OC
10

Specify reported zone of inhibition at 50 µg/mL for the compound shown: Cc1c(-c2nnc(-c3ccc(Cl)cc3)o2)c(-c2ccccc2)nn1-c1ccccc1
9
